Listing of recorded half-life by entry.
EXPERIMENT_SUMMARY: Half-life period was determined
Assay type: ADME
API: value field is a number in h; no unit string.

Field: example entries. Status: answers known.
# MOLECULE, half-life / h
records = [
    ("O=C1CCCc2c(ccc3ccccc23)O1", 49.5),
    ("O=C1Cc2c(ccc3ccccc23)O1", 12.2),
    ("O=C1CCc2ccc3ccccc3c2O1", 6.9),
    ("O=C1CCc2c(ccc3ccccc23)O1 [SPLITOMICIN]", 7.5),
]

# next molecule below
// recorded half-life for O=C1CCc2c(ccc3ccccc23)S1 : 13

###

Listing of recorded SI by entry.
STUDY_TARGET: NAD-dependent histone deacetylase SIR2 (Saccharomyces cerevisiae S288c)
EXPERIMENT_SUMMARY: Selectivity index was reported as the ratio of the MGC to IC50 value

# SMI, STUDY_TARGET, SI
records = [
    ("O=C1CCc2ccc3c(O)cccc3c2O1", "NAD-dependent histone deacetylase SIR2 (Saccharomyces cerevisiae S288c)", "> 7"),
    ("O=C1CCc2c(ccc3cc(O)ccc23)O1", "NAD-dependent histone deacetylase SIR2 (Saccharomyces cerevisiae S288c)", "> 39"),
    ("CC(C)(C)OC(=O)NCCOCCOc1cc2ccccc2c2c1OC(=O)CC2", "NAD-dependent histone deacetylase SIR2 (Saccharomyces cerevisiae S288c)", 13),
]

// recorded SI for CNC(=O)CCc1c(O)ccc2ccccc12 : > 26

###

STUDY_TARGET: NAD-dependent histone deacetylase SIR2 (Saccharomyces cerevisiae S288c)
EXPERIMENT_SUMMARY: Sirtuin 2 inhibitory activity and was reported as minimum growth-stimulating concentration in Saccharomyces cerevisiae
Listing of recorded MGC by entry.
API: value field is a number in µM; no unit string.

Field: example entries. Status: answers known.
# SMI, UNIT_OF_MEASURE, MGC
data = [
    ("O=C1CCc2c(ccc3cc(O)ccc23)O1", "µM", 38),
    ("COc1cc2c(c3ccccc13)CCC(=O)O2", "µM", 1.8),
    ("O=C1CCc2c(ccc3ccc(O)cc23)O1", "µM", 48),
]

// recorded MGC for COc1ccc2c3c(ccc2c1)OC(=O)CC3 : 13.8

// recorded MGC for O=C1CCc2c(cc(O)c3ccccc23)O1 : 11

// recorded MGC for O=C1CCc2c(ccc3c(O)cccc23)O1 : 16

###

STUDY_TARGET: Saccharomyces cerevisiae
EXPERIMENT_SUMMARY: Toxicity against Saccharomyces cerevisiae assessed as growth inhibition in complete medium
PROPERTY_MEASURED: IC50 (µM)
API: value field is a number in µM; no unit string.

Field: example entries. Status: answers known.
# SMI, PROPERTY_MEASURED, QUANTITATIVE_RESULT
measured = [
    ("O=C1CCc2c(ccc3ccc(O)cc23)O1", "IC50", 134),
    ("COc1cc2c(c3ccccc13)CCC(=O)O2", "IC50", 44),
]

# next compound below
// recorded IC50 for CCN(CC)C(=O)CCc1c(O)ccc2ccccc12 : 125

###

STUDY_TARGET: Saccharomyces cerevisiae
EXPERIMENT_SUMMARY: Toxicity against Saccharomyces cerevisiae assessed as growth inhibition in complete medium
PROPERTY_MEASURED: IC50 (µM)
API: value field is a number in µM; no unit string.

Field: example entries. Status: answers known.
# SMI, UNIT_OF_MEASURE, QUANTITATIVE_RESULT
rows = [
    ("O=C1CCc2c(c(O)cc3ccccc23)O1", "µM", 111),
    ("O=c1ccc2c(ccc3ccccc32)o1", "µM", 86),
    ("O=C1CCc2ccc3ccccc3c2O1", "µM", 65),
    ("O=C1CCc2c(c(OCc3ccccc3)cc3ccccc23)O1", "µM", 27),
]

Log: Saccharomyces cerevisiae, molecule O=C1CCCc2c1ccc1ccccc21 , IC50 = 81

Log: Saccharomyces cerevisiae, molecule O=C1Cc2c(ccc3ccccc23)O1 , IC50 = 59

###

Listing of recorded MGC by entry.
STUDY_TARGET: NAD-dependent histone deacetylase SIR2 (Saccharomyces cerevisiae S288c)
EXPERIMENT_SUMMARY: Sirtuin 2 inhibitory activity and was reported as minimum growth-stimulating concentration in Saccharomyces cerevisiae
API: value field is a number in µM; no unit string.

Field: example entries. Status: answers known.
# COMPOUND, UNIT_OF_MEASURE, MGC
records = [
    ("O=C1CCc2ccc3ccccc3c2O1", "µM", 2.4),
    ("O=C1CCc2c(c(O)cc3ccccc23)O1", "µM", 0.69),
    ("COc1cccc2c3c(ccc12)OC(=O)CC3", "µM", 5.5),
    ("COC(=O)CCc1c(O)ccc2ccccc12", "µM", 5.2),
    ("CC1Cc2c(ccc3ccccc23)OC1=O (stereo not given)", "µM", 5.4),
]

// recorded MGC for CC(C)(C)OC(=O)NCCOCCOc1cc2ccccc2c2c1OC(=O)CC2 : 6.4

###

STUDY_TARGET: NAD-dependent histone deacetylase SIR2 (Saccharomyces cerevisiae S288c)
EXPERIMENT_SUMMARY: Sirtuin 2 inhibitory activity and was reported as minimum growth-stimulating concentration in Saccharomyces cerevisiae
Listing of recorded MGC by entry.

// recorded MGC for CC(C)CC1Cc2c(ccc3ccccc23)OC1=O (centres undefined) : > 150 µM

// recorded MGC for OCCCc1c(O)ccc2ccccc12 : > 150 µM

// recorded MGC for CCN(CC)C(=O)CCc1c(O)ccc2ccccc12 : > 150 µM

// recorded MGC for O=C1CCc2c(ccc3c4c(ccc23)OC(=O)CC4)O1 : > 150 µM

// recorded MGC for O=C1CCc2c(ccc3ccc4c(c23)CCC(=O)O4)O1 : > 150 µM

###

STUDY_TARGET: Saccharomyces cerevisiae
EXPERIMENT_SUMMARY: Toxicity against Saccharomyces cerevisiae assessed as growth inhibition in complete medium
PROPERTY_MEASURED: IC50

# SMI, IC50
records = [
    ("O=C1CCc2c(c3oc(=O)ccc3c3ccccc23)O1", "≥ 150 µM"),
    ("O=C1Cc2ccccc2O1", "≥ 150 µM"),
    ("O=C1CCc2c(ccc3cc(O)ccc23)O1", "≥ 150 µM"),
]

# next compound below
// recorded IC50 for O=C(O)CCc1c(O)ccc2ccccc12 : ≥ 150 µM

###

STUDY_TARGET: NAD-dependent histone deacetylase SIR2 (Saccharomyces cerevisiae S288c)
EXPERIMENT_SUMMARY: Sirtuin 2 inhibitory activity and was reported as minimum growth-stimulating concentration in Saccharomyces cerevisiae
PROPERTY_MEASURED: MGC

# MOLECULE, STUDY_TARGET, MGC
rows = [
    ("CCOC(=O)C1Cc2c(ccc3ccccc23)OC1=O (centres undefined)", "NAD-dependent histone deacetylase SIR2 (Saccharomyces cerevisiae S288c)", "> 150 µM"),
    ("O=C(O)CCc1c(O)ccc2ccccc12", "NAD-dependent histone deacetylase SIR2 (Saccharomyces cerevisiae S288c)", "> 150 µM"),
    ("O=C1CCCc2c(ccc3ccccc23)O1", "NAD-dependent histone deacetylase SIR2 (Saccharomyces cerevisiae S288c)", "> 150 µM"),
    ("O=C1CCCc2c1ccc1ccccc21", "NAD-dependent histone deacetylase SIR2 (Saccharomyces cerevisiae S288c)", "> 150 µM"),
    ("O=C1CCc2ccccc2O1", "NAD-dependent histone deacetylase SIR2 (Saccharomyces cerevisiae S288c)", "0.85 µM"),
    ("O=C1OC(=O)c2cccc3cccc1c23", "NAD-dependent histone deacetylase SIR2 (Saccharomyces cerevisiae S288c)", "> 150 µM"),
    ("O=C1CCc2c(c3c(c4ccccc24)CCC(=O)O3)O1", "NAD-dependent histone deacetylase SIR2 (Saccharomyces cerevisiae S288c)", "4.9 µM"),
    ("NC(=O)CCc1c(O)ccc2ccccc12", "NAD-dependent histone deacetylase SIR2 (Saccharomyces cerevisiae S288c)", "0.79 µM"),
    ("O=C1CC(c2ccccc2)c2c(ccc3ccccc23)O1 (centres undefined)", "NAD-dependent histone deacetylase SIR2 (Saccharomyces cerevisiae S288c)", "> 150 µM"),
    ("O=C1Cc2c(ccc3ccccc23)O1", "NAD-dependent histone deacetylase SIR2 (Saccharomyces cerevisiae S288c)", "> 150 µM"),
]

// recorded MGC for O=C1Cc2ccccc2O1 : 24 µM

// recorded MGC for CNC(=O)CCc1c(O)ccc2ccccc12 : 5.8 µM

// recorded MGC for O=C(COc1cccc2ccccc12)ON1C(=O)CCC1=O : > 150 µM

// recorded MGC for O=c1ccc2c(ccc3ccccc32)o1 : > 150 µM
